System: HOP-62
Test description: Cytotoxicity against human HOP62 cells assessed as cell growth at 10 uM after 48 hrs by sulforhodamine B assay relative to control
Assay type: functional
Test settings: HOP-62, 48 h, read-out: Activity

[
  {
    "Chem smiles": "COc1ccc(-c2cc(/C=C/C(=O)c3ccc(OC)c(OC)c3)[nH]n2)cc1",
    "System": "HOP-62",
    "growth at 10 µM": "-25%"
  },
  {
    "Chem smiles": "COc1cc(-c2cc(/C=C/C(=O)c3ccc(Cl)c(Cl)c3)[nH]n2)cc(OC)c1OC",
    "System": "HOP-62",
    "growth at 10 µM": "-9%"
  },
  {
    "Chem smiles": "COc1ccc(-c2cc(/C=C/C(=O)c3ccc(N)cc3)[nH]n2)cc1",
    "System": "HOP-62",
    "growth at 10 µM": "-15%"
  },
  {
    "Chem smiles": "COc1ccc(C(=O)/C=C/c2cc(-c3ccc4c(c3)OCO4)n[nH]2)cc1OC",
    "System": "HOP-62",
    "growth at 10 µM": "-29%"
  },
  {
    "Chem smiles": "COc1ccc(C(=O)/C=C/c2cc(-c3ccc(OC)c(OC)c3)n[nH]2)cc1OC",
    "System": "HOP-62",
    "growth at 10 µM": "-25%"
  }
]

----------
Overview of recorded GI50 for various molecules
Tested on: SF-268
Test description: Cytotoxicity against human SF268 cells assessed as growth inhibition after 48 hrs by sulforhodamine B assay
Type: functional
Test settings: SF-268, 48 h
Reported metric: GI50

[
  {
    "Chem smiles": "COc1cc(C(=O)/C=C/c2cc(-c3ccc4c(c3)OCO4)n[nH]2)cc(OC)c1OC",
    "Assay value": "2450 nM"
  },
  {
    "Chem smiles": "COc1ccc(-c2cc(/C=C/C(=O)c3ccc(OC)c(OC)c3)[nH]n2)cc1",
    "Assay value": "1940 nM"
  },
  {
    "Chem smiles": "COc1ccc(-c2cc(/C=C/C(=O)c3ccc(N)cc3)[nH]n2)cc1OC",
    "Assay value": "1890 nM"
  },
  {
    "Chem smiles": "COc1cc2c(cc1OC)C(=O)/C(=C/c1cc(-c3ccc4c(c3)OCO4)n[nH]1)C2",
    "Assay value": "1630 nM"
  }
]

----------
System: HCT-116
Test description: Cytotoxicity against human HCT116 cells assessed as cell growth at 0.01 uM after 48 hrs by sulforhodamine B assay relative to control
Type: functional
Test settings: HCT-116, 48 h, read-out: Activity

[
  {
    "Chem smiles": "COc1ccc(-c2cc(/C=C/C(=O)c3ccc(OC)c(OC)c3)[nH]n2)cc1",
    "growth at 0.01 µM (%)": 97
  },
  {
    "Chem smiles": "COc1cc(C(=O)/C=C/c2cc(-c3cc(OC)c(OC)c(OC)c3)n[nH]2)cc(OC)c1OC",
    "growth at 0.01 µM (%)": 97
  },
  {
    "Chem smiles": "COc1cc(-c2cc(/C=C/C(=O)c3ccc(Cl)c(Cl)c3)[nH]n2)cc(OC)c1OC",
    "growth at 0.01 µM (%)": 102
  },
  {
    "Chem smiles": "COc1cc2c(cc1OC)C(=O)/C(=C/c1cc(-c3ccc4c(c3)OCO4)n[nH]1)C2",
    "growth at 0.01 µM (%)": 105
  },
  {
    "Chem smiles": "COc1ccc(C(=O)/C=C/c2cc(-c3cc(OC)c(OC)c(OC)c3)n[nH]2)cc1",
    "growth at 0.01 µM (%)": 100
  }
]
